Biological target: T1, IL-18 binding protein (IL-18BP) (UniProt O95998 31-194)
T1 sequence (looked up): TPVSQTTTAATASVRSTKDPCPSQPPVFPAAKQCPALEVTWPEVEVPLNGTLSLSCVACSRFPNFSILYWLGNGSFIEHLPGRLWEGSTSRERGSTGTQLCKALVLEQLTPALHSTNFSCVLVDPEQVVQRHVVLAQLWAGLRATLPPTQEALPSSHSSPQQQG
Assay: cell-based or functional assay
binders and their reported Activity, +100 nM BP, DF-1000002
observation.type: Activity, +100 nM BP, DF-1000002

binder="IL-18 variant K53T, D54H, S55V, T63A, N91K (ligand) YFGKLESKLSVIRNLNDQVLFIDQGNRPLFEDMTDSDMRDNAPRTIFIISMYTHVQPRGMAVAISVKSEKISTLSSENKIISFKEMNPPDKIKDTKSDIIFFQRSVPGHDNKMQFESSSYEGYFLASEKERDLFKLILKKEDELGDRSIMFTVQNED" result_number=0.23
binder="IL-18 variant G3E, E6G, N91M, R104A (ligand) YFEKLGSKLSVIRNLNDQVLFIDQGNRPLFEDMTDSDMRDNAPRTIFIISMYKDSQPRGMAVTISVKSEKISTLSSENKIISFKEMNPPDMIKDTKSDIIFFQASVPGHDNKMQFESSSYEGYFLASEKERDLFKLILKKEDELGDRSIMFTVQNED" result_number=1.93
binder="IL-18 variant G3D, E6G, K53G, D54A, T63S, N91Y, R104Q (ligand) YFDKLGSKLSVIRNLNDQVLFIDQGNRPLFEDMTDSDMRDNAPRTIFIISMYGASQPRGMAVSISVKSEKISTLSSENKIISFKEMNPPDYIKDTKSDIIFFQQSVPGHDNKMQFESSSYEGYFLASEKERDLFKLILKKEDELGDRSIMFTVQNED" result_number=1.33
binder="IL-18 variant G3Q, E6N, D54Y, S55P, T63S, N91S, R104H (ligand) YFQKLNSKLSVIRNLNDQVLFIDQGNRPLFEDMTDSDMRDNAPRTIFIISMYKYPQPRGMAVSISVKSEKISTLSSENKIISFKEMNPPDSIKDTKSDIIFFQHSVPGHDNKMQFESSSYEGYFLASEKERDLFKLILKKEDELGDRSIMFTVQNED" result_number=0.9
binder="IL-18 variant G3Q, E6S, S55V, T63A, N91T (ligand) YFQKLSSKLSVIRNLNDQVLFIDQGNRPLFEDMTDSDMRDNAPRTIFIISMYKDVQPRGMAVAISVKSEKISTLSSENKIISFKEMNPPDTIKDTKSDIIFFQRSVPGHDNKMQFESSSYEGYFLASEKERDLFKLILKKEDELGDRSIMFTVQNED" result_number=1.15
binder="IL-18 variant G3S, E6H, K53Y, D54P, S55Y, T63S, N91A, R104S (ligand) YFSKLHSKLSVIRNLNDQVLFIDQGNRPLFEDMTDSDMRDNAPRTIFIISMYYPYQPRGMAVSISVKSEKISTLSSENKIISFKEMNPPDAIKDTKSDIIFFQSSVPGHDNKMQFESSSYEGYFLASEKERDLFKLILKKEDELGDRSIMFTVQNED" result_number=0.07
binder="IL-18 variant G3T, E6Q, K53G, D54G, S55H, T63A, S65T, N91R, R104Q (ligand) YFTKLQSKLSVIRNLNDQVLFIDQGNRPLFEDMTDSDMRDNAPRTIFIISMYGGHQPRGMAVAITVKSEKISTLSSENKIISFKEMNPPDRIKDTKSDIIFFQQSVPGHDNKMQFESSSYEGYFLASEKERDLFKLILKKEDELGDRSIMFTVQNED" result_number=0.49
binder="IL-18 variant G3Y, E6N, N91Y, R104S (ligand) YFYKLNSKLSVIRNLNDQVLFIDQGNRPLFEDMTDSDMRDNAPRTIFIISMYKDSQPRGMAVTISVKSEKISTLSSENKIISFKEMNPPDYIKDTKSDIIFFQSSVPGHDNKMQFESSSYEGYFLASEKERDLFKLILKKEDELGDRSIMFTVQNED" result_number=1.78
binder="IL-18 variant E6G, D54A, S55K, T63S, N91K, Q114R (ligand) YFGKLGSKLSVIRNLNDQVLFIDQGNRPLFEDMTDSDMRDNAPRTIFIISMYKAKQPRGMAVSISVKSEKISTLSSENKIISFKEMNPPDKIKDTKSDIIFFQRSVPGHDNKMRFESSSYEGYFLASEKERDLFKLILKKEDELGDRSIMFTVQNED" result_number=1.89
binder="IL-18 variant G3P, E6H, D54A, S55P, Q56K, T63S, N91M (ligand) YFPKLHSKLSVIRNLNDQVLFIDQGNRPLFEDMTDSDMRDNAPRTIFIISMYKAPKPRGMAVSISVKSEKISTLSSENKIISFKEMNPPDMIKDTKSDIIFFQRSVPGHDNKMQFESSSYEGYFLASEKERDLFKLILKKEDELGDRSIMFTVQNED" result_number=1.24
binder="IL-18 variant N91S, R104H (ligand) YFGKLESKLSVIRNLNDQVLFIDQGNRPLFEDMTDSDMRDNAPRTIFIISMYKDSQPRGMAVTISVKSEKISTLSSENKIISFKEMNPPDSIKDTKSDIIFFQHSVPGHDNKMQFESSSYEGYFLASEKERDLFKLILKKEDELGDRSIMFTVQNED" result_number=0.09
